Values were extracted from the supplement of paper PMC10567573.

B1: PRAME (parent)
chain: KKLKIFAMPMQDIKMILKMVQLDS

Variants of: B1
assay.overview: protein stability index of a GFP-peptide fusion (GPS, HEK-293T) (PSI 1-6); higher = more stable;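 further: lentivirally expressed fusions sorted by FACS into six bins by GFP to DsRed ratio, PSI derived from sequencing read proportions per bin multiplied by bin number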
conditions.used: c terminus: a fixed tail appended
property.measured: protein stability index
One number for each entry.

Example variants with recorded protein stability index:
In [3]: df
Out[3]:
   mutations  numeric_value
0       Q11W           3.08
1        K4V           3.08
2       K14Q           2.64
3        K1L           2.86
4        K4M           3.45
5       M10E           3.14
6       K18H           2.65
7        K1Y           1.86

Batch of 8 variants: report protein stability index for each.
1. K2Q
2. I13H
3. M10R
4. S24F
5. K1S
6. S24I
7. K14D
8. K4S

Result ::
1. 3.53
2. 1.84
3. 2.7
4. 2.85
5. 3.56
6. 2.49
7. 3.25
8. 3.49
